TARGET_OR_TEST_SYSTEM: H-NSctd WT (Salmonella enterica serovar Typhimurium, UniProt P0A1S2 85-137)
ASSAY_PROCEDURE: NMR titration
EXPERIMENTAL_READOUT: pKd
// returns pKd (minus log10 of molar concentration), number only

For this binder ( 3AT DNA (dsDNA) DNA 1: CGCATATATGCG DNA 2: CGCATATATGCG ), measured pKd is 5.20
